As shown below, each of these compounds has a reported pIC50 value.
# assayedSystem: Glucocorticoid receptor (Homo sapiens, UniProt P04150)
# Sequence (P04150 whole entry): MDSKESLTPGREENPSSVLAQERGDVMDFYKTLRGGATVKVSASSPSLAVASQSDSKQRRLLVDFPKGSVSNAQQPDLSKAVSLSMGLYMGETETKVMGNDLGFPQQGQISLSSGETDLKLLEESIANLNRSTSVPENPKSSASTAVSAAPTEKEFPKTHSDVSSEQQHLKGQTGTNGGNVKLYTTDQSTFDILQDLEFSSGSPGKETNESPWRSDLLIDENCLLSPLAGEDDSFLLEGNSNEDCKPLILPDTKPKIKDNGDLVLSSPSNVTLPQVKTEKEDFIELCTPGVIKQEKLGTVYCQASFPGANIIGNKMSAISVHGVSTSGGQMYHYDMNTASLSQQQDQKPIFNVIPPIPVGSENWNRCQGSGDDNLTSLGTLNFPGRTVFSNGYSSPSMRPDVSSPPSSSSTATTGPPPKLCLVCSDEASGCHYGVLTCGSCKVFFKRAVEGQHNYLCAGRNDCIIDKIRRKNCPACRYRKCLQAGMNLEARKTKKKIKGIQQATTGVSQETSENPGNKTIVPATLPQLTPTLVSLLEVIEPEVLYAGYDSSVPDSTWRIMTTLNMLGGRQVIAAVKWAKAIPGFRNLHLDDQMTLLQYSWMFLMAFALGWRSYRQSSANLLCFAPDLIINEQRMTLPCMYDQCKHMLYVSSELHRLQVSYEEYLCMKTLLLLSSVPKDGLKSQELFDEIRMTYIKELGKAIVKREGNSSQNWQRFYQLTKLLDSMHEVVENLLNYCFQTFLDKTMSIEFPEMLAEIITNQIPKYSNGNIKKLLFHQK
# testName: Inhibition of glucocorticoid receptor-glucocorticoid complex transfected in rat R1 cells assessed as down-regulation of TPA-responsive element proinflammatory gene expression after 24 hrs by beta-galactosidase assay
pIC50: −log10 of the molar value.
quantityMeasured: pIC50

{"compound": "COc1ccc2[nH]c3c(C)c4ccncc4c(C)c3c2c1", "assayedSystem": "Glucocorticoid receptor (Homo sapiens, UniProt P04150)", "quantityMeasured": "pIC50", "valueMeasured": 4.05}
{"compound": "Cc1c2ccncc2c(C)c2c1[nH]c1ccccc12 [ELLIPTECINE]", "assayedSystem": "Glucocorticoid receptor (Homo sapiens, UniProt P04150)", "quantityMeasured": "pIC50", "valueMeasured": 4.05}
